# Protocol details: probe aLefty1 binding on compound microarray – biochemical, small-molecule microarray, 635/667 nm fluorescence, primary screen (AID 1153);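 also: score merges spot fluorescence with signal-to-noise ratio from the scanned slide images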
# Assay setup: higher = more signal
The following compounds are shown together with reported composite z-score values.

Input smiles	composite z-score
COCCOC(=O)N1C(=O)[C@@]2(c3cc(C#CCCO)ccc31)[C@H](c1ccc(O)cc1)N1[C@H](c3ccccc3)[C@H](c3ccccc3)OC(=O)[C@H]1[C@@H]2C(=O)N1CCCCCCC1	1.6
Cc1ccc(N2C(=O)c3ccccc3[C@@H](C(=O)NCC(C)C)[C@@H]2c2ccc(CO)cc2)nc1	-0.0186
COCCn1c(C(=O)N2CCCC2)cc2c1C[C@H]1CN(C(=O)c3ccccc3)[C@@](Cc3ccc(OC)cc3)(C(=O)OC)[C@@H]21	1.15

###

# Test system: Homeobox protein Hox-A13 (Mus musculus)
# Protocol details: disruptors of Hoxa13 oligonucleotide interaction – biochemical, fluorescence polarization, labeled oligonucleotide, primary screen (AID 1185)
# Assay setup: Hoxa13:DNA binding, 15 min, higher = more signal, called active from +8 up or from −8 down
Activity calls are given as the source filed them.
A collection of compounds and their measured z-score

Compound	z-score
CCCC[C@H]1OB(O)C[C@H]2C1=C(C)Cn1c(=O)n(-c3ccccc3)c(=O)n12	-0.581 (inactive)
C=CCOC(=O)[C@@H]1[C@H]2C(=O)O[C@H](c3ccccc3)[C@H](c3ccccc3)N2[C@H](c2ccc(OCCOC(=O)[C@H]3C[C@H]4C(=O)N[C@@H](CC(C)C)C(=O)N4[C@H]3c3cccc(OCCO)c3)cc2)[C@@]12C(=O)Nc1ccc(I)cc12	2.41 (inactive)
COc1ccc(C(O)C2C=CC3C(=O)N(c4ccccc4)C(=O)C3N2Nc2ccccc2)c2ccccc12 (stereo not drawn)	-1.28 (inactive)

###

# Tested on: Chordin-like protein 2 (CHRDL2)
# Protocol details: compounds binding chordin-like 2 – biochemical, small-molecule microarray, 635 nm fluorescence, primary screen (AID 1126);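 also: printed compound slides probed with Chrdl2 protein at 4 µg/mL for 1 h at 4 C; score merges 667 nm emission intensity with signal to noise over three replicate slides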
# Assay setup: fluorescence 635 nm, higher = more signal
Recorded composite z-score, one value per entry.

Compound	composite z-score
CC1(C)C(=O)C(c2ccccc2)=C2CN3C(=O)N(CCc4ccccc4)C(=O)C3(Cc3ccccc3)C=C21 (stereo not drawn)	-0.888
CN(C)CCCCCCNC(=O)[C@@H]1C[C@@H]2C(=O)N[C@@H](Cc3ccccc3)C(=O)N2[C@@H]1c1cccc(OCCO)c1	0.711
COCCOC(=O)N1C(=O)[C@@]2(c3cc(C#CCCO)ccc31)[C@H](C(=O)NC[C@H](O)c1ccccc1)[C@H]1C(=O)O[C@H](c3ccccc3)[C@H](c3ccccc3)N1[C@@H]2c1ccc(OCCO)cc1	0.534

###

# Protocol details: optical density change of DRC41 E. coli – strain DRC41, OD650, 24 h, E. coli filamentation project, primary screen (AID 1093);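 also: MC1000 strain lacking acrAB efflux and sulA so SOS filamentation is blocked; test concentration not given here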
# Assay setup: E. coli DRC41 growth, higher = more signal, called active from +8 up or from −8 down
Entries and their measured z-score follow.
Reported metric: z-score

Input smiles	Numeric result
O=C1c2ccccc2[C@@]2(Cc3ccccc3N(Cc3ccccc3)C2=O)[C@H](c2ccc(CO)cc2)N1Cc1ccccc1C(F)(F)F	0.127
COC(=O)[C@@]1(Cc2ccc(F)cc2)[C@H]2c3cc(C(=O)N(C)C)n(CCCNc4ccc(C(F)(F)F)cc4Cl)c3C[C@H]2CN1C(=O)c1ccccc1	-1.3
C#C[C@H](O[Si](C#CCCCCCC)(C(C)C)C(C)C)c1ccccc1	0.411
O=C1O[C@H](c2ccccc2)[C@H](c2ccccc2)N2[C@H]1[C@@H](C(=O)N1CCCCCCC1)[C@]1(C(=O)Nc3ccc(C#CC4=CCCCC4)cc31)[C@H]2c1ccc(O)cc1	1.26

###

# Protocol details: compounds binding Alexa647 anti-His antibody – biochemical, small-molecule microarray, 635 nm fluorescence, artefact control for SMM control protein annotation, primary screen (AID 1128);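 also: score merges feature fluorescence with signal-to-noise for each printed compound spot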
# Assay setup: higher = more signal
Reported metric: composite z-score

Compound	Numeric result
COC(=O)[C@@]1(Cc2ccc(OC)cc2)[C@H]2c3cc(C(=O)N(C)C)n(CCSCCO)c3C[C@H]2CN1C(=O)c1ccccc1	0.957
C=C(COC)C(=O)CC[C@H](OC(=O)c1cccnc1)c1ccccc1OCCO	1.12
COC(=O)C(CC#Cc1ccc2c(c1)[C@]1(C(=O)N2)[C@H](C(=O)N2CCCCCCC2)[C@H]2C(=O)O[C@H](c3ccccc3)[C@H](c3ccccc3)N2[C@@H]1c1ccccc1OCCO)C(=O)OC	3
COc1ccc(C(=O)Nc2cccc(CN3C(=O)[C@@]4(O[C@@H](CCn5cc([C@H](O)c6ccccc6)nn5)[C@H]([Si](C)(C)c5ccc(OC)cc5)[C@H]4C)c4ccccc43)c2)cc1	0.669
C=CCN1C(=O)[C@]2(COC(c3ccc(OCCCO)cc3)=N2)Cc2ccccc21	3.08
COC(=O)c1c2oc(c1C(=O)OC)C(=O)N[C@H](Cc1ccccc1)Cn1nncc1C1(CCCCC1)NC(=O)N[C@H](CO)CC2	0.265
Cc1ccc(N2C(=O)c3ccccc3[C@@H](C(=O)NC(C)C)[C@@H]2c2ccc(CO)cc2)nc1	0.621
C=C(C)[C@@H]1CC=C(C(O)C2C=CC3C(=O)N(Cc4ccccc4)C(=O)C3N2n2cnnc2)CC1 (stereo partly drawn)	-0.087
CC1(C)C(=O)C(c2ccccc2)=C2CN3C(=O)N(CCc4ccccc4)C(=O)C3(Cc3ccccc3)C=C21 (stereo not drawn)	0.323
COC(=O)[C@@]1(Cc2ccc(OC)cc2)[C@H]2c3cc(C(=O)N(C)C)n(Cc4ccc(OC)c(OC)c4)c3C[C@H]2CN1C(=O)c1ccccc1	1.26
O=C1C2C=CC(C(O)c3ccc(Br)cc3)N(n3cnnc3)C2C(=O)N1Cc1ccccc1 (stereo not drawn)	0.648
[N-]=[N+]=Nc1ccccc1[C@H]1OC(c2ccc(OCCCO)cc2)=N[C@@]1(CCS(=O)(=O)c1ccccc1)C(=O)N1CCOCC1	2.83
CCOC(=O)C1=CC[C@@H](c2cccc(Cl)c2)N(S(=O)(=O)c2ccc(C)cc2)[C@H]1c1ccc(C#N)cc1	0.931
O=C(NCC(O)CO)[C@]1(CCS(=O)(=O)c2ccccc2)N=C(c2ccc(OCCCO)cc2)O[C@@H]1c1ccccc1 (stereo partly drawn)	1.14
COc1ccc([Si](C)(C)[C@@H]2[C@@H](CCn3cc([C@H](O)c4ccccc4)nn3)O[C@]3(C(=O)N(C)c4ccccc43)[C@H]2C)cc1	0.214
NC(=O)[C@@]1(CCS(=O)(=O)c2ccccc2)N=C(c2ccc(OCCCO)cc2)O[C@H]1c1ccccc1	2.14
O=C1OCC=C[C@H]2OC34C=CCN(CCN5CCOCC5)C(=O)[C@H]3N(CCCCCCO)C(=O)[C@@H]4[C@@H]12 (stereo partly drawn)	3.21
COc1ccc([Si](C)(C)[C@@H]2[C@@H](CCO)O[C@]3(C(=O)N(Cc4ccccc4)c4ccc(N(C=O)c5ccccc5)cc43)[C@H]2C)cc1	1.24
CS(=O)(=O)CCOC(=O)C1=CC(c2ccc(CO)cc2)=CC(c2cccs2)N(Cc2cccc(OC(F)(F)F)c2)C=C1C(=O)OCCS(C)(=O)=O (stereo not drawn)	0.419
CN(C)CCCC[C@@H]1NC(=O)[C@@H]2C[C@H](C(=O)NCCCCCCN)[C@H](c3ccc(O)cc3)N2C1=O	0.297
O=C1C[C@@](C(=O)O)(c2ccc([N+](=O)[O-])cc2)[C@@H](c2ccc(CO)cc2I)N1CC12CC3CC(CC(C3)C1)C2	0.829
O=C1O[C@@H](c2ccccc2)[C@@H](c2ccccc2)N2[C@@H](c3ccc(O)cc3)[C@]3(C(=O)Nc4ccc(C#CCCO)cc43)[C@@H](C(=O)O)[C@H]12	2.29
O=c1cccc(-c2ccc3ccccc3c2)o1	-0.829
NC(=O)NCC#Cc1ccc2c(c1)[C@]1(C(=O)N2)[C@H](c2ccc(O)cc2)N2[C@H](c3ccccc3)[C@H](c3ccccc3)OC(=O)[C@H]2[C@@H]1C(=O)N1CCN(c2ncccn2)CC1	1.05
O=C1C2C=CC(C(O)c3ccc(-c4ccccc4)s3)N(Nc3ccccc3F)C2C(=O)N1c1ccccc1 (stereo not drawn)	1.29
O=C1OCC=C[C@H]2OC34C=CCN(c5ccc(Cl)cc5)C(=O)[C@H]3N(CCCO)C(=O)[C@@H]4[C@@H]12 (stereo partly drawn)	-0.562
[N-]=[N+]=NCc1ccccc1[C@H]1OC(c2ccc(OCCCO)cc2)=N[C@@]1(Cc1ccccc1)C(=O)NCC(O)CO (stereo partly drawn)	1.86
COc1ccc(C#Cc2ccc3c(c2)[C@]2(C(=O)N3)[C@H](C(=O)N3CCc4cc(OC)c(OC)cc4C3)[C@H]3C(=O)O[C@H](c4ccccc4)[C@H](c4ccccc4)N3[C@@H]2c2ccc(OCCO)cc2)cc1	0.441

###

# Protocol details: basal CRE-LacZ reporter activity in PC12 – cell-based, unstimulated, primary screen (AID 1145)
# Assay setup: no forskolin, luminescence, 4.5 h, higher = more signal, called active from +8 up or from −8 down
Label no (0) if z-score falls below 0.3; label yes (1) in every other case.

Molecule	Class label
CC(C)NC(=O)[C@@]1(c2ccc([N+](=O)[O-])cc2)CC(=O)N(C(C)C)[C@@H]1c1ccc(CO)cc1	yes (1)
CN1C(=O)C2C=CC(C(O)c3ccc(Br)cc3)N(Nc3ccccc3)C2C1=O (stereo not given)	yes (1)
Cc1ccc(S[C@]2(C(=O)NCCCN(C)C)CC(=O)N(C(C)C)[C@@H]2c2ccc(CO)cc2I)cc1	no (0)
C=C(C(=O)CC[C@@H](OC(=O)c1cccnc1)c1ccc(OCCO)cc1)C(C)C	yes (1)
CC(=O)n1cc(C(O)C2C=CC3C(=O)N(c4ccccc4)C(=O)C3N2Nc2ccc(C#N)cc2)c2ccccc21 (stereo not given)	no (0)
COCCOC(=O)N1C(=O)[C@@]2(c3cc(C#Cc4ccc(OC)cc4)ccc31)[C@H](C(N)=O)[C@H]1C(=O)O[C@H](c3ccccc3)[C@H](c3ccccc3)N1[C@@H]2c1ccc(O)cc1	no (0)
CCOC(=O)C1=CC[C@@H](c2ccccc2)N(S(=O)(=O)c2ccc(C)cc2)[C@H]1c1ccc(C#N)cc1	yes (1)
Cc1ccc(N2C(=O)c3ccccc3[C@@H](C(=O)NC(C)C)[C@@H]2c2ccc(CO)cc2)nc1	yes (1)
O=C1OCCC/C=C\[C@H]2OC34C=CCN(Cn5nnc6ccccc65)C(=O)[C@H]3N(CCCO)C(=O)[C@@H]4C12 (stereo not given in full)	no (0)
[N-]=[N+]=NCc1ccccc1[C@H]1OC(c2ccc(OCCCO)cc2)=N[C@@]1(Cc1ccccc1)C(=O)O	no (0)
C=CCN1C(=O)[C@@]2(O[C@@H](CCO)[C@H]([Si](C)(C)c3ccc(OC)cc3)[C@H]2C)c2cc(NC(C)=O)ccc21	yes (1)
COc1ccc([Si](C)(C)[C@H]2[C@H](CC(=O)N3Cc4ccccc4C[C@H]3CO)O[C@@]3(C(=O)N(Cc4cccc(I)c4)c4ccccc43)[C@@H]2C)cc1	yes (1)
CN(C)CCCC[C@@H]1NC(=O)[C@@H]2C[C@H](C(=O)NCCCCCCN)[C@H](c3ccc(O)cc3)N2C1=O	no (0)
COC(=O)c1nc2oc1CC[C@@H](CO)NC(=O)N(C)Cc1cn(nn1)C[C@H](Cc1ccccc1)NC2=O	yes (1)

Just for reference, PubChem BioAssay is where these values come from.
